The values you see were collected from the MegaScale stability set (Tsuboyama et al. 2023).

B1: EHEE_rd4_0726 (parent)
chain: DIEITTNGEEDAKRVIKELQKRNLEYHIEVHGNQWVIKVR

- Variants of: B1
- experimentalProtocol: folding stability dG (cDNA display proteolysis); higher = more stable
- experimentalSetup: PBS, room temperature
Binary call on folding stability dG: Fulfilled from 2 kcal/mol upward, Not fulfilled beneath that.

Past entries and their recorded results:
DIEITTNGEEDAKRVIKELQKCNLEYHIEVHGNQWVIKVR [R22C]: Fulfilled
DIEITRNGEEDAKRVIKELQKRNLEYHIEVHGNQWVIKVR [T6R]: Not fulfilled
DIEITTNGEEDAKRVIKELQKRNLEYHIERHGNQWVIKVR [V30R]: Fulfilled
DIEITTNGEEDAKRVIKELAKRNLEYHIEVHGNQWVIKVR [Q20A]: Fulfilled
DIEITTNGEEDAKRVIKELQKRNLEYHIEVHGNQWVIKVM [R40M]: Fulfilled

-- ask Determine whether measured folding stability dG meets or exceeds 2 kcal/mol for DIEITTNGEEDAKRRIKELQKRNLEYHIEVHGNQWVIKVR [V15R]
-- reply Not fulfilled

-- ask Repeat with DIEITTNGEEDAKRVIKELQKRNLEYHIEVQGNQWVIKVR [H31Q]
-- reply Fulfilled

-- ask Repeat with DIEITTNGEEDAKIVIKELQKRNLEYHIEVHGNQWVIKVR [R14I]
-- reply Fulfilled

-- ask Repeat with DIEITTEGEEDAKRVIKELQKRNLEYHIEVHGNQWVIKVR [N7E]
-- reply Fulfilled

-- ask Repeat with DIEITTNGEEDAKRVIKELQKRNLEYHIEVYGNQWVIKVR [H31Y]
-- reply Fulfilled
